tested on: Staphylococcus aureus; test: Antibacterial activity against methicillin-resistant Staphylococcus aureus isolate 7664 after 18 hrs by broth microdilution method; type: functional; conditions: isolate 7664, 18 h
recordedEndpoint: MIC90 (µg/mL)
# output: bare number, implied unit µg/mL

Input CN[C@H](CC(C)C)C(=O)N[C@H]1C(=O)N[C@@H](CC(N)=O)C(=O)N[C@H]2C(=O)N[C@H]3C(=O)N[C@H](C(=O)N[C@H](C(=O)O)c4cc(O)cc(O)c4-c4cc3ccc4O)[C@H](O)c3ccc(c(Cl)c3)Oc3cc2cc(c3O[C@@H]2O[C@H](CO)[C@@H](O)[C@H](O)[C@H]2O[C@H]2C[C@](C)(N)[C@H](O)[C@H](C)O2)Oc2ccc(cc2Cl)[C@H]1O [VANCOMYCIN] . Output MIC90: 0.5

Input CC(C)(C)c1ccc(CN2CCCN(CCc3cc(-c4cccs4)nc(-c4ccncc4)n3)CC2)cc1 . Output MIC90: 2

Input CC(C)c1ccc(CN2CCCN(CCc3cc(-c4cccs4)nc(-c4ccncc4)n3)CC2)cc1 . Output MIC90: 2

Input FC(F)(F)c1ccc(CN2CCCN(CCc3cc(-c4cccs4)nc(-c4ccncc4)n3)CC2)cc1 . Output MIC90: 4

---

tested on: Staphylococcus aureus; experiment: Antibacterial activity against methicillin-resistant Staphylococcus aureus isolate 7434 after 18 hrs by broth microdilution method; type: functional; settings: isolate 7434, 18 h
recordedEndpoint: MIC90 (µg/mL)
# output: bare number, implied unit µg/mL

Input FC(F)(F)c1ccc(CN2CCCN(CCc3cc(-c4cccs4)nc(-c4ccncc4)n3)CC2)cc1 . Output MIC90: 8

Input CC(C)c1ccc(CN2CCCN(CCc3cc(-c4cccs4)nc(-c4ccncc4)n3)CC2)cc1 . Output MIC90: 2

---

assay: Selectivity index, ratio of HC50 for human erythrocytes to MIC for methicillin-resistant Staphylococcus aureus ATCC BAA41; type: toxicity; settings: read-out: Selectivity Index
recordedEndpoint: selectivity ratio

Input CC(C)(C)c1ccc(CN2CCCN(CCc3cc(-c4cccs4)nc(-c4ccncc4)n3)CC2)cc1 . Output selectivity ratio: > 32

Input CC(C)c1ccc(CN2CCCN(CCc3cc(-c4cccs4)nc(-c4ccncc4)n3)CC2)cc1 . Output selectivity ratio: > 32

---

test system: Enterococcus faecalis; assay: Antibacterial activity against vancomycin-resistant Enterococcus faecalis ATCC 51575 after 18 hrs by broth microdilution method; format: functional; conditions: ATCC 51575, 18 h
recordedEndpoint: MIC90 (µg/mL)
# output: bare number, implied unit µg/mL

Input FC(F)(F)c1ccc(CN2CCCN(CCc3cc(-c4cccs4)nc(-c4ccncc4)n3)CC2)cc1 . Output MIC90: 4

---

tested on: Staphylococcus aureus; test: Antibacterial activity against methicillin-resistant Staphylococcus aureus isolate 3096 after 18 hrs by broth microdilution method; assay type: functional; conditions: isolate 3096, 18 h
So I've got a bunch of molecules here, and I need their MIC90 values.
# output: bare number, implied unit µg/mL

Input CC(C)(C)c1ccc(CN2CCCN(CCc3cc(-c4cccs4)nc(-c4ccncc4)n3)CC2)cc1 . Output MIC90: 2

Input FC(F)(F)c1ccc(CN2CCCN(CCc3cc(-c4cccs4)nc(-c4ccncc4)n3)CC2)cc1 . Output MIC90: 4

Input CN[C@H](CC(C)C)C(=O)N[C@H]1C(=O)N[C@@H](CC(N)=O)C(=O)N[C@H]2C(=O)N[C@H]3C(=O)N[C@H](C(=O)N[C@H](C(=O)O)c4cc(O)cc(O)c4-c4cc3ccc4O)[C@H](O)c3ccc(c(Cl)c3)Oc3cc2cc(c3O[C@@H]2O[C@H](CO)[C@@H](O)[C@H](O)[C@H]2O[C@H]2C[C@](C)(N)[C@H](O)[C@H](C)O2)Oc2ccc(cc2Cl)[C@H]1O [VANCOMYCIN] . Output MIC90: 1

Input CC(C)c1ccc(CN2CCCN(CCc3cc(-c4cccs4)nc(-c4ccncc4)n3)CC2)cc1 . Output MIC90: 2

---

system: Staphylococcus aureus; assay: Antibacterial activity against methicillin-resistant Staphylococcus aureus isolate 7247 after 18 hrs by broth microdilution method; format: functional; conditions: isolate 7247, 18 h
recordedEndpoint: MIC90 (µg/mL)
# output: bare number, implied unit µg/mL

Value sought: MIC90, system Staphylococcus aureus, item FC(F)(F)c1ccc(CN2CCCN(CCc3cc(-c4cccs4)nc(-c4ccncc4)n3)CC2)cc1 . Result: 4

Value sought: MIC90, system Staphylococcus aureus, item CC(C)(C)c1ccc(CN2CCCN(CCc3cc(-c4cccs4)nc(-c4ccncc4)n3)CC2)cc1 . Result: 2

Value sought: MIC90, system Staphylococcus aureus, item CC(C)c1ccc(CN2CCCN(CCc3cc(-c4cccs4)nc(-c4ccncc4)n3)CC2)cc1 . Result: 2

Value sought: MIC90, system Staphylococcus aureus, item CN[C@H](CC(C)C)C(=O)N[C@H]1C(=O)N[C@@H](CC(N)=O)C(=O)N[C@H]2C(=O)N[C@H]3C(=O)N[C@H](C(=O)N[C@H](C(=O)O)c4cc(O)cc(O)c4-c4cc3ccc4O)[C@H](O)c3ccc(c(Cl)c3)Oc3cc2cc(c3O[C@@H]2O[C@H](CO)[C@@H](O)[C@H](O)[C@H]2O[C@H]2C[C@](C)(N)[C@H](O)[C@H](C)O2)Oc2ccc(cc2Cl)[C@H]1O . Result: 1

---

So I've got a bunch of compounds here, and I need their MIC90 values.
tested on: Staphylococcus aureus; test: Antibacterial activity against methicillin-resistant Staphylococcus aureus isolate 4548 after 18 hrs by broth microdilution method; type: functional; conditions: isolate 4548, 18 h
# output: bare number, implied unit µg/mL

Value sought: MIC90, system Staphylococcus aureus, item FC(F)(F)c1ccc(CN2CCCN(CCc3cc(-c4cccs4)nc(-c4ccncc4)n3)CC2)cc1 . Result: 4

Value sought: MIC90, system Staphylococcus aureus, item CC(C)(C)c1ccc(CN2CCCN(CCc3cc(-c4cccs4)nc(-c4ccncc4)n3)CC2)cc1 . Result: 2

Value sought: MIC90, system Staphylococcus aureus, item CN[C@H](CC(C)C)C(=O)N[C@H]1C(=O)N[C@@H](CC(N)=O)C(=O)N[C@H]2C(=O)N[C@H]3C(=O)N[C@H](C(=O)N[C@H](C(=O)O)c4cc(O)cc(O)c4-c4cc3ccc4O)[C@H](O)c3ccc(c(Cl)c3)Oc3cc2cc(c3O[C@@H]2O[C@H](CO)[C@@H](O)[C@H](O)[C@H]2O[C@H]2C[C@](C)(N)[C@H](O)[C@H](C)O2)Oc2ccc(cc2Cl)[C@H]1O [VANCOMYCIN] . Result: 2

Value sought: MIC90, system Staphylococcus aureus, item CC(C)c1ccc(CN2CCCN(CCc3cc(-c4cccs4)nc(-c4ccncc4)n3)CC2)cc1 . Result: 2

---

So I've got a bunch of compounds here, and I need their MIC90 values.
tested on: Staphylococcus aureus; test: Antibacterial activity against methicillin-resistant Staphylococcus aureus isolate 6515 after 18 hrs by broth microdilution method; assay type: functional; settings: isolate 6515, 18 h
# output: bare number, implied unit µg/mL

Value sought: MIC90, system Staphylococcus aureus, item CC(C)c1ccc(CN2CCCN(CCc3cc(-c4cccs4)nc(-c4ccncc4)n3)CC2)cc1 . Result: 2

Value sought: MIC90, system Staphylococcus aureus, item CC(C)(C)c1ccc(CN2CCCN(CCc3cc(-c4cccs4)nc(-c4ccncc4)n3)CC2)cc1 . Result: 4

Value sought: MIC90, system Staphylococcus aureus, item FC(F)(F)c1ccc(CN2CCCN(CCc3cc(-c4cccs4)nc(-c4ccncc4)n3)CC2)cc1 . Result: 4

Value sought: MIC90, system Staphylococcus aureus, item CN[C@H](CC(C)C)C(=O)N[C@H]1C(=O)N[C@@H](CC(N)=O)C(=O)N[C@H]2C(=O)N[C@H]3C(=O)N[C@H](C(=O)N[C@H](C(=O)O)c4cc(O)cc(O)c4-c4cc3ccc4O)[C@H](O)c3ccc(c(Cl)c3)Oc3cc2cc(c3O[C@@H]2O[C@H](CO)[C@@H](O)[C@H](O)[C@H]2O[C@H]2C[C@](C)(N)[C@H](O)[C@H](C)O2)Oc2ccc(cc2Cl)[C@H]1O [VANCOMYCIN] . Result: 1

---

So I've got a bunch of compounds here, and I need their MIC90 values.
test system: Staphylococcus aureus; assay: Antibacterial activity against methicillin-resistant Staphylococcus aureus ATCC 43300 after 18 hrs by broth microdilution method; type: functional; settings: ATCC 43300, 18 h

Input COc1cccc(OC)c1C(=O)N[C@@H]1C(=O)N2[C@@H]1SC(C)(C)[C@@H]2C(=O)O . Output MIC90: > 192 µg/mL

Input CC(C)(C)c1ccc(CN2CCCN(CCc3cc(-c4cccs4)nc(-c4ccncc4)n3)CC2)cc1 . Output MIC90: 2 µg/mL

Input COc1ccc2cc3[n+](cc2c1OC)CCc1cc2c(cc1-3)OCO2 . Output MIC90: 192 µg/mL

Input FC(F)(F)c1ccc(CN2CCCN(CCc3cc(-c4cccs4)nc(-c4ccncc4)n3)CC2)cc1 . Output MIC90: 4 µg/mL

Input CN[C@H](CC(C)C)C(=O)N[C@H]1C(=O)N[C@@H](CC(N)=O)C(=O)N[C@H]2C(=O)N[C@H]3C(=O)N[C@H](C(=O)N[C@H](C(=O)O)c4cc(O)cc(O)c4-c4cc3ccc4O)[C@H](O)c3ccc(c(Cl)c3)Oc3cc2cc(c3O[C@@H]2O[C@H](CO)[C@@H](O)[C@H](O)[C@H]2O[C@H]2C[C@](C)(N)[C@H](O)[C@H](C)O2)Oc2ccc(cc2Cl)[C@H]1O . Output MIC90: 2 µg/mL

Input CC(C)c1ccc(CN2CCCN(CCc3cc(-c4cccs4)nc(-c4ccncc4)n3)CC2)cc1 . Output MIC90: 2 µg/mL

The measured values listed here are drawn from ChEMBL document CHEMBL4325853.
